Form: system (Cannabinoid receptor 1 (Homo sapiens, UniProt P21554)), quantity (Ki), values below.
measured_parameter: Ki (µM)

>>> observed_value("C=CCn1cc(C(=O)C(=O)NC23CC4CC(CC(C4)C2)C3)c2cc(-c3ccco3)ccc21")
3.62
>>> observed_value("C=CCn1cc(CC(=O)NC23CC4CC(CC(C4)C2)C3)c2cc(-c3ccccc3)ccc21")
0.53
>>> observed_value("C=CCn1cc(C(=O)NC23CC4CC(CC(C4)C2)C3)c2cc(-c3ccco3)ccc21")
2.79
>>> observed_value("CCCCCn1cc(C(=O)C(=O)NC23CC4CC(CC(C4)C2)C3)c2cc(-c3ccco3)ccc21")
0.345
>>> observed_value("CCCCCn1cc(C(=O)NC23CC4CC(CC(C4)C2)C3)c2cc(-c3ccco3)ccc21")
0.342
>>> observed_value("C=CCn1cc(C(=O)NC23CC4CC(CC(C4)C2)C3)c2cc(-c3ccccc3)ccc21")
0.0482
>>> observed_value("C=CCCn1cc(CC(=O)NC23CC4CC(CC(C4)C2)C3)c2cc(-c3ccccc3)ccc21")
1.83
>>> observed_value("CCCCCn1cc(CC(=O)NC23CC4CC(CC(C4)C2)C3)c2cc(-c3ccccc3)ccc21")
2.38
>>> observed_value("C=CCn1cc(CC(=O)NC23CC4CC(CC(C4)C2)C3)c2cc(-c3ccco3)ccc21")
0.56
>>> observed_value("C=CCn1cc(C(=O)C(=O)NC23CC4CC(CC(C4)C2)C3)c2cc(-c3ccccc3)ccc21")
3.92
>>> observed_value("CCCCCn1cc(C(=O)NC23CC4CC(CC(C4)C2)C3)c2cc(-c3ccccc3)ccc21")
1.05
>>> observed_value("Cn1cc(CC(=O)NC23CC4CC(CC(C4)C2)C3)c2cc(-c3ccccc3)ccc21")
0.488
>>> observed_value("CCCCCn1cc(CC(=O)NC23CC4CC(CC(C4)C2)C3)c2cc(-c3ccco3)ccc21")
1.66
>>> observed_value("CCCCCn1cc(C(=O)NC23CC4CC(CC(C4)C2)C3)c2ccc(-c3ccccc3)cc21")
0.00203
>>> observed_value("CCCCCn1cc(C(=O)NC23CC4CC(CC(C4)C2)C3)c2cc(-c3cccs3)ccc21")
3.62
>>> observed_value("CCCCCn1cc(CC(=O)NC23CC4CC(CC(C4)C2)C3)c2cc(Br)ccc21")
5.51
>>> observed_value("CCn1cc(CC(=O)NC23CC4CC(CC(C4)C2)C3)c2cc(-c3ccccc3)ccc21")
0.698
>>> observed_value("CCCn1cc(CC(=O)NC23CC4CC(CC(C4)C2)C3)c2cc(-c3ccccc3)ccc21")
1.51

====

# tested_on: Cannabinoid receptor 2 (Homo sapiens)
# test: Inverse agonist activity at human CB2 receptor expressed in CHO cells assessed as increase of forskolin-induced cAMP level at 10 uM by scintillation counting
# Format: functional, cell-based
measured_parameter: Activity (%)

>>> observed_value("C=CCn1cc(C(=O)NC23CC4CC(CC(C4)C2)C3)c2cc(-c3ccc(O)cc3)ccc21")
68
>>> observed_value("CCCCCn1cc(C(=O)C(=O)NC23CC4CC(CC(C4)C2)C3)c2cc(-c3ccco3)ccc21")
163
>>> observed_value("CCCCCn1cc(C(=O)NC23CC4CC(CC(C4)C2)C3)c2cc(-c3ccco3)ccc21")
110
>>> observed_value("C=CCn1cc(CC(=O)NC23CC4CC(CC(C4)C2)C3)c2cc(-c3ccccc3)ccc21")
88
>>> observed_value("CCCCCn1cc(C(=O)NC23CC4CC(CC(C4)C2)C3)c2cc(-c3cccs3)ccc21")
135
>>> observed_value("CCCCCn1cc(C(=O)C(=O)NC23CC4CC(CC(C4)C2)C3)c2cc(-c3ccccc3)ccc21")
70
>>> observed_value("C=CCn1cc(C(=O)C(=O)NC23CC4CC(CC(C4)C2)C3)c2cc(-c3ccco3)ccc21")
75

====

Recorded measurements of Ki, one per entry
# tested_on: Cannabinoid receptor 2 (Homo sapiens)
# test: Displacement of [3H]CP-55,940 from human recombinant CB2 receptor transfected in HEK cells
measured_parameter: Ki (nM)

>>> observed_value("C=CCn1cc(CC(=O)NC23CC4CC(CC(C4)C2)C3)c2cc(-c3ccccc3)ccc21")
50
>>> observed_value("CCn1cc(CC(=O)NC23CC4CC(CC(C4)C2)C3)c2cc(-c3ccccc3)ccc21")
67
>>> observed_value("Cn1cc(CC(=O)NC23CC4CC(CC(C4)C2)C3)c2cc(-c3ccccc3)ccc21")
98
>>> observed_value("CCCCCn1cc(C(=O)C(=O)NC23CC4CC(CC(C4)C2)C3)c2cc(-c3ccccc3)ccc21")
12.7
>>> observed_value("C=CCn1cc(CC(=O)NC23CC4CC(CC(C4)C2)C3)c2cc(-c3ccco3)ccc21")
50
>>> observed_value("CCCCCn1cc(C(=O)NC23CC4CC(CC(C4)C2)C3)c2cc(-c3ccccc3)ccc21")
11.6
>>> observed_value("CCCCCn1cc(C(=O)NC23CC4CC(CC(C4)C2)C3)c2cc(-c3cccs3)ccc21")
6.37
>>> observed_value("C=CCn1cc(C(=O)NC23CC4CC(CC(C4)C2)C3)c2cc(-c3ccco3)ccc21")
5.73

====

# tested_on: Cannabinoid receptor 2 (Homo sapiens, UniProt P34972)
# Sequence (P34972 whole entry): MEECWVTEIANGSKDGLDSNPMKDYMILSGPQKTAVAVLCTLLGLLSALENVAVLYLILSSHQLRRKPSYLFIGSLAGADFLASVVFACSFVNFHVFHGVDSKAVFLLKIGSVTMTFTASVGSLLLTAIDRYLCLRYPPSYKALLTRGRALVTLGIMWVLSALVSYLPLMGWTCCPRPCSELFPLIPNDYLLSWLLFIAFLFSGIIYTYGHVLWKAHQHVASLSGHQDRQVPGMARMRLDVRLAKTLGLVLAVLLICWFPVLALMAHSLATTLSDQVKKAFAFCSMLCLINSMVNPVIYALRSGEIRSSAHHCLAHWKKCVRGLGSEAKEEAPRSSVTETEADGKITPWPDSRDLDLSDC
# test: Displacement of [3H]CP-55,940 from human recombinant CB2 receptor transfected in HEK cells
measured_parameter: Ki (nM)

>>> observed_value("CCCCn1cc(CC(=O)NC23CC4CC(CC(C4)C2)C3)c2cc(-c3ccccc3)ccc21")
20.5
>>> observed_value("C=CCn1cc(C(=O)C(=O)NC23CC4CC(CC(C4)C2)C3)c2cc(-c3ccccc3)ccc21")
25.4
>>> observed_value("CCCCCn1cc(C(=O)NC23CC4CC(CC(C4)C2)C3)c2ccc(-c3ccccc3)cc21")
3.52
>>> observed_value("C=CCn1cc(CC(=O)NC23CC4CC(CC(C4)C2)C3)c2cc(Br)ccc21")
1090
>>> observed_value("CCCCCn1cc(CC(=O)NC23CC4CC(CC(C4)C2)C3)c2cc(Br)ccc21")
170
>>> observed_value("C=CCn1cc(CC(=O)NC2CCCCC2)c2cc(OCc3cccc(OC)c3)ccc21")
400
>>> observed_value("C=CCn1cc(CC(=O)NC2CCCCCC2)c2cc(-c3ccco3)ccc21")
377
>>> observed_value("C=CCCn1cc(CC(=O)NC23CC4CC(CC(C4)C2)C3)c2cc(-c3ccccc3)ccc21")
17.8
>>> observed_value("C=CCn1cc(C(=O)C(=O)NC23CC4CC(CC(C4)C2)C3)c2cc(-c3ccco3)ccc21")
10.3
>>> observed_value("CCCCCn1cc(CC(=O)NC23CC4CC(CC(C4)C2)C3)c2cc(-c3ccco3)ccc21")
110
>>> observed_value("O=C(Cc1c[nH]c2ccc(-c3ccccc3)cc12)NC12CC3CC(CC(C3)C1)C2")
70.8
>>> observed_value("CCCCCn1cc(CC(=O)NC23CC4CC(CC(C4)C2)C3)c2cc(-c3ccccc3)ccc21")
70
>>> observed_value("C=CCn1cc(C(=O)NC23CC4CC(CC(C4)C2)C3)c2cc(-c3ccccc3)ccc21")
1.82
>>> observed_value("O=C(Cc1cn(Cc2ccccc2)c2ccc(-c3ccccc3)cc12)NC12CC3CC(CC(C3)C1)C2")
189
>>> observed_value("CCCCCn1cc(C(=O)C(=O)NC2CCCCC2)c2cc(-c3ccccc3)ccc21")
11.2
>>> observed_value("CCCCCn1cc(C(=O)NC23CC4CC(CC(C4)C2)C3)c2cc(-c3ccco3)ccc21")
2.48
>>> observed_value("CCCCCn1cc(C(=O)C(=O)NC23CC4CC(CC(C4)C2)C3)c2cc(-c3ccco3)ccc21")
0.37
>>> observed_value("CCCn1cc(CC(=O)NC23CC4CC(CC(C4)C2)C3)c2cc(-c3ccccc3)ccc21")
11.8
>>> observed_value("C=CCn1cc(C(=O)NC23CC4CC(CC(C4)C2)C3)c2cc(-c3ccc(O)cc3)ccc21")
22.2

====

Recorded measurements of Activity, one per entry
# tested_on: Cannabinoid receptor 2 (Homo sapiens, UniProt P34972)
# test: Inverse agonist activity at human CB2 receptor expressed in CHO cells assessed as increase of forskolin-induced cAMP level at 1 uM by scintillation counting
# Type: functional, cell-based
measured_parameter: Activity (%)

>>> observed_value("C=CCn1cc(C(=O)C(=O)NC23CC4CC(CC(C4)C2)C3)c2cc(-c3ccco3)ccc21")
62
>>> observed_value("C=CCn1cc(CC(=O)NC23CC4CC(CC(C4)C2)C3)c2cc(-c3ccccc3)ccc21")
67
>>> observed_value("CCCCCn1cc(C(=O)NC23CC4CC(CC(C4)C2)C3)c2cc(-c3ccco3)ccc21")
93
>>> observed_value("CCCCCn1cc(C(=O)NC23CC4CC(CC(C4)C2)C3)c2cc(-c3cccs3)ccc21")
106
>>> observed_value("CCCCCn1cc(C(=O)C(=O)NC23CC4CC(CC(C4)C2)C3)c2cc(-c3ccccc3)ccc21")
55
>>> observed_value("C=CCn1cc(C(=O)NC23CC4CC(CC(C4)C2)C3)c2cc(-c3ccc(O)cc3)ccc21")
51
>>> observed_value("CCCCCn1cc(C(=O)C(=O)NC23CC4CC(CC(C4)C2)C3)c2cc(-c3ccco3)ccc21")
138

Taken from ChEMBL document CHEMBL2086369.
